Target: T1, human IL1RAcP domain 1/2 (AG-12337) (human)
T1 construct: also called domain 1/2 of human IL-1RAcP
Test: ELISA on directly coated human IL-1RAcP domain 1/2 (AG-12337), IgG1f_AEASS titrated, S/BG
assayEndpoint: EC50 (read off the curve)

Consider the worked cases shown below.
Name the reported EC50 (read off the curve) value associated with the binder Y024149_h_IgG1f_AEASS (antibody, V domains shown, Human IgG1f with AEASS effector-silencing residues, kappa light chain) VH: EVQLVESGGGLVQPGGSLRLSCAASGGTFGGSAMHWVRQAPGKGLVWVSRILTYGGIATYAESVKGRFTISRDNAKNTLYLQMNSLRAEDTAVYYCARGSSEYPKFDIWGQGTLVTVSS VL: DIQMTQSPSTLSASVGDRVTITCRASQSISSWLAWYQQKPGKAPKLLIYDASSLESGVPSRFSGSGSGTEFTLTISSLQPEDFATYYCHQLLIYPHTFGQGTKVEIKR ~5 nM

Name the reported EC50 (read off the curve) value associated with the binder Y024148_h_IgG1f_AEASS (antibody, V domains shown, Human IgG1f with AEASS effector-silencing residues, kappa light chain) VH: EVQLVESGGGLVQPGGSLRLSCAASGGTIGGSAVHWVRQAPGKGLVWVSRILTYSSTTQYAESVKGRFTISRDNAKNTLYLQMNSLRAEDTAVYYCARGSSEYPKFDIWGQGTLVTVSS VL: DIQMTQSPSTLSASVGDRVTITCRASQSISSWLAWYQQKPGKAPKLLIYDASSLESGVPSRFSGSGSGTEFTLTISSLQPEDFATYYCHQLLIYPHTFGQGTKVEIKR ~6 nM

Now turn to the next binder.
Name the reported EC50 (read off the curve) value associated with the binder R001032 (1A05) (antibody, human IgG1, kappa, V domains shown, Rabbit variable domains of prior art 1A05 on human IgG1 kappa constant regions with AEASS; also called P013.S.01.B.A05) VH: LEQSGGGAEGGLVKPGGSLELCCKASGFSLSTSYWRCWVRQAPGKGLEWIGCIYAGSGDVTYYANWVNGRFTLSRDIDQSTGCLQLNSLTAADTAMYYCASGVGFGYFNLWGQGTLVTVSS VL: ALVMTQTPSPVSAAVGGTVTINCQASEDIYSNLAWFQQKPGQPPKLLIYDASTLASGVPSRFSGSGSGTEFTLTISGLQSDDAATYYCLGVYTHISADNAFGGGTEVVVKR ~4 nM
